Just for reference, patent US20240116985A1 is where these values come from.

assay_system: T1, full-length beta-Catenin (Uniprot ID P35222) (Homo sapiens (Human), UniProt P35222 2-781)
T1 construct: full-length beta-Catenin (Uniprot ID P35222); also called bCat; B-Catenin
T1 sequence: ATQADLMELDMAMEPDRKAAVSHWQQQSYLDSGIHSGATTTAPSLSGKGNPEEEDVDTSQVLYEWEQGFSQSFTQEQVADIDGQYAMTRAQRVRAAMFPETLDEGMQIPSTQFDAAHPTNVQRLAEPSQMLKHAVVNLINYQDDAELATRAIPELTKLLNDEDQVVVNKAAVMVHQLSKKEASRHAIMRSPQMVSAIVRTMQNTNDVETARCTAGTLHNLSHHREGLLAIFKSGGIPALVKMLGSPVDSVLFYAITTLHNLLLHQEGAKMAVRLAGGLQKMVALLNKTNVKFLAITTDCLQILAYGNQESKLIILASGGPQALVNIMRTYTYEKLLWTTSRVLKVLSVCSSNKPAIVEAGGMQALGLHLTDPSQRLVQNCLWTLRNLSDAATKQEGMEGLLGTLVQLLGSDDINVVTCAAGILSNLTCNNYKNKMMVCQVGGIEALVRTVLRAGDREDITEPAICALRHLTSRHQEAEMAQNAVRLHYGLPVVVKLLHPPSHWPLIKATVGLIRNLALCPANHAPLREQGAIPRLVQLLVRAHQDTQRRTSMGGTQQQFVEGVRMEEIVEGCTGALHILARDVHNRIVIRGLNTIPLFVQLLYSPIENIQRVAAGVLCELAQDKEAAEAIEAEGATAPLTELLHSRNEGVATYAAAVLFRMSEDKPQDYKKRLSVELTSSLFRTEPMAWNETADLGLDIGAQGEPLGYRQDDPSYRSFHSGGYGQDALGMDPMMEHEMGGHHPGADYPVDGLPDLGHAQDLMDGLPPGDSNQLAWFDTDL
assay_details: fluorescence polarization competition; full-length beta-catenin + 5FAM-TCF4 10-53 probe, peptide titrated
Starred links: 1 amine or outer side, 2 acyl side, 3 side chain; linkers in the order of their positions; H or OH if unused. Positions of bridges follow the written chain, without caps; N, C: chain ends. Non-standard residues stand in square brackets, D forms with d. Primed or numbered codes have the meaning given here. *: point of attachment. PyrS2″ = (S)-3-amino-1-((pent-4-en-1-yloxy)carbonyl)pyrrolidine-3-carboxylic acid (stapling residue), C=CCCCOC(=O)N1CC[C@@](N[*:1])(C(=O)[*:2])C1; B5(4) = 2,2-bis(4-pentenyl)glycine = 2-amino-2-(pent-4-en-1-yl)hept-6-enoic acid (stitching residue), C=CCCCC(CCCC=C)(N[*:1])C(=O)[*:2]; B5(21) = 2-amino-2-(pent-4-en-1-yl)hept-6-enoic acid, bis(4-pentenyl)glycine (stitching residue), C=CCCCC(CCCC=C)(N[*:1])C(=O)[*:2]; 2Nal = N[C@@H](Cc1ccc2ccccc2c1)C(=O)O; Bta = N[C@@H](Cc1csc2ccccc12)C(=O)O; Lys(iPr) = CC(C)NCCCC[C@H](N)C(=O)O; αAllylPro = C=CC[C@@]1(C(=O)O)CCCN1; iPr = CC(C)*
Can you tell me IC50 for the items I'm about to list?
Numeric answer only, unit µM assumed.

I'd like to know its IC50. The binder in question is Ac-[αAllylPro]DA[B5(4)]NT[Lys(iPr)]AFL[PyrS2″]F[Bta]T-NH2 (staple 1-4, 4-11, also called Ac-PL3-Asp-Ala-B5-Asn-Thr-iPrLys-Ala-Phe-Leu-PyrS2-Phe-BztA-Thr-NH2) [I-1378] 6.17

I'd like to know its IC50. The binder in question is Ac-[αAllylPro]DA[B5(4)]NT[Lys(iPr)]AFL[PyrS2″]F[2Nal]Q-NH2 (staple 1-4, 4-11, also called Ac-PL3-Asp-Ala-B5-Asn-Thr-iPrLys-Ala-Phe-Leu-PyrS2-Phe-2NapA-Gln-NH2) [I-1381] 10

I'd like to know its IC50. The binder in question is Ac-[αAllylPro]NA[B5(4)]DT[Lys(iPr)]AFL[PyrS2″]F[Bta]T-NH2 (staple 1-4, 4-11, also called Ac-PL3-Asn-Ala-B5-Asp-Thr-iPrLys-Ala-Phe-Leu-PyrS2-Phe-BztA-Thr-NH2) [I-1384] 10

I'd like to know its IC50. The binder in question is Ac-[αAllylPro]NA[B5(21)]DKK(iPr)AFL[PyrS2″]F[Bta]Q-NH2 (staple 1-4, 4-11, also called Ac-PL3-Asn-Ala-B5-Asp-Lys-iPrLys-Ala-Phe-Leu-PyrS2-Phe-BztA-Gln-NH2) [I-1386] 2.25

I'd like to know its IC50. The binder in question is Ac-[αAllylPro]NA[B5(21)]DQK(iPr)AFL[PyrS2″]F[Bta]Q-NH2 (staple 1-4, 4-11, also called Ac-PL3-Asn-Ala-B5-Asp-Gln-iPrLys-Ala-Phe-Leu-PyrS2-Phe-BztA-Gln-NH2) [I-1385] 1.08
